The origin of these recorded values is patent US20250243286A1.

Let's look at some binders and their measured log10 IC90, Myostatin SMAD RGA.
- measuredTarget: ActRIIA and ActRIIB (on TGFB/SMAD SBE Reporter HEK293 cells) (human)
- Sequence (chain, as listed by the source, chain 1 of 2): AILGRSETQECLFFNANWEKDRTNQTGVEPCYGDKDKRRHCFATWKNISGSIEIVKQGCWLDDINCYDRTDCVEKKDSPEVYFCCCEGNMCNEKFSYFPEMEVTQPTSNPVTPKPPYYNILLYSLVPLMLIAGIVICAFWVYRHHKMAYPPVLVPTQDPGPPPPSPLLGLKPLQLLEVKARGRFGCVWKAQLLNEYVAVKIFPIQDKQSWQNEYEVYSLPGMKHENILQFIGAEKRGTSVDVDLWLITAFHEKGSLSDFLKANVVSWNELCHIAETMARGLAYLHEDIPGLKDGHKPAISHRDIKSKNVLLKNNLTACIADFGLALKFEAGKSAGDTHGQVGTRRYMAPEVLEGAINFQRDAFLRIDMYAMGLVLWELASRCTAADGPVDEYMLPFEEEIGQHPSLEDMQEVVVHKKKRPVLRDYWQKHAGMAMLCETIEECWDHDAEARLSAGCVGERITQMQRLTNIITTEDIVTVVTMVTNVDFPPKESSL
- Sequence (chain, as listed by the source, chain 2 of 2): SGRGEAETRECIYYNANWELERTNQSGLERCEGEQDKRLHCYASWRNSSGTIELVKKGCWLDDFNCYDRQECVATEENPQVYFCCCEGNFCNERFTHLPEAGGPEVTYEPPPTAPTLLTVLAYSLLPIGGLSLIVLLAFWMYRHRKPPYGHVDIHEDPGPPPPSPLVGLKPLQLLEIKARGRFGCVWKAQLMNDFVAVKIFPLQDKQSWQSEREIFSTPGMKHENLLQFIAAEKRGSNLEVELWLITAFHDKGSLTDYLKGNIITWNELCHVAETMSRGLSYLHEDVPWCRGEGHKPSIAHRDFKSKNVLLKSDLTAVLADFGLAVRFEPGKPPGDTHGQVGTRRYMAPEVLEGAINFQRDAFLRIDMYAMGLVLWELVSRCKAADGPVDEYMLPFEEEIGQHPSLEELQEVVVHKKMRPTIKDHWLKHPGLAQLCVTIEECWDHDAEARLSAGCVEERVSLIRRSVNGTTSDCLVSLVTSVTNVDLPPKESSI
- protocolSummary: cell-based or functional assay
readoutKind: log10 IC90, Myostatin SMAD RGA (log10 of the value in nM)

binder	measuredValue
Antibody Peitscheschdegga (antibody, V domains shown) VH: QVQLVQSGAEVKKPGSSVKVSCKASGYKFTSSYINWVRQAPGQGLEWMGTINAVSGSTSYAQKFQGRVTITADTSTSTAYMELSSLRSEDTAVYYCARGGWFDYWGQGTLVTVSS VL: QSALTQPRSVSGSPGQSVTISCTGTSSDVGSKNYVNWYQQHPGKAPKLMIHGVSKRESGVPDRFSGSKSGNTASLTISGLQAEDEADYYCGTFAGGKYYGVFGGGTKLTVL	1.68
Antibody Zibebe (antibody, V domains shown) VH: QVQLVQSGAEVKKPGSSVKVSCKASGYKFTSSYINWVRQAPGQGLEWMGTINAVSGSTSYAQKFQGRVTITADESTSTAYMELSSLRSEDTAVYYCARGGWFDYWGQGTLVTVSS VL: QSALTQPRSVSGSPGQSVTISCTGTSSDVGSYNYVNWYQQHPGKAPKLMIYGVSKRESGVPDRFSGSKSGNTASLTISGLQAEDEADYYCGTFAGGKYYGVFGGGTKLTVL	1.28
Antibody Mauldascha (antibody, V domains shown) VH: QVQLVQSGAEVKKPGSSVKVSCKASGYTFTSSYINWVRQAPGQGLEWMGTINAVSGSTSYAQKFQGRVTITADESTSTAYMELSSLRSEDTAVYYCARGGWFDYWGQGTLVTVSS VL: QSALTQPRSVSGSPGQSVTISCTGTSSDVGSYNYVNWYQQHPGKAPKLMIYGVSKRESGVPDRFSGSKSGNTASLTISGLQAEDEADYYCGTFAGGKYYGVFGGGTKLTVL	1.13
Antibody Wiebela (antibody, V domains shown) VH: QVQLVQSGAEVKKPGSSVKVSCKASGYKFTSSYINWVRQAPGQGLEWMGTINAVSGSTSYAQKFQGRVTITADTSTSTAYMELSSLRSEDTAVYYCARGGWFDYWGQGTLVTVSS VL: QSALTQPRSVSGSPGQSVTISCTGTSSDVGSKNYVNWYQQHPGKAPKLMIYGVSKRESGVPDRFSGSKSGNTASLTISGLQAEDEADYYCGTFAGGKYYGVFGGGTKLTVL	1.17
Antibody Krapfa (antibody, V domains shown) VH: QVQLVQSGAEVKKPGSSVKVSCKASGHKFTSSYINWVRQAPGQGLEWMGTINAVSGSTSYAQKFQGRVTITADTSTSTAYMELSSLRSEDTAVYYCARGGWFDYWGQGTLVTVSS VL: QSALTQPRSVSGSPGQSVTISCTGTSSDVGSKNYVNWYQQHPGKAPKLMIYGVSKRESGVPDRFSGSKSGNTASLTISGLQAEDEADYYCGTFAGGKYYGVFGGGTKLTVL	4.02
Antibody Schnitzbrot (antibody, V domains shown) VH: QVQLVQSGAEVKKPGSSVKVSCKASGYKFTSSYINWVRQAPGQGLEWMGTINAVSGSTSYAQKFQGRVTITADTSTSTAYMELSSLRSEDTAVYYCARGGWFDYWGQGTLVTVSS VL: QSALTQPRSVSGSPGQSVTISCTGTSSDVGSYNYVNWYQQHPGKAPKLMIYGVSKRDSGVPDRFSGSKSGNTASLTISGLQAEDEADYYCGTFAGGKYYGVFGGGTKLTVL	1.28
Antibody Seela (antibody, V domains shown) VH: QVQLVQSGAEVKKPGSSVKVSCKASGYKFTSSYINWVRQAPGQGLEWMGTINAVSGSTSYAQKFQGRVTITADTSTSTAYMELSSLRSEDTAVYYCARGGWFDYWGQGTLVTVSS VL: QSALTQPRSVSGSPGQSVTISCTGTSSDVGSKNYVNWYQQHPGKAPKHMIYGVSKRESGVPDRFSGSKSGNTASLTISGLQAEDEADYYCGTFAGGKYYGVFGGGTKLTVL	1.26
Antibody Metzelsupp (antibody, V domains shown) VH: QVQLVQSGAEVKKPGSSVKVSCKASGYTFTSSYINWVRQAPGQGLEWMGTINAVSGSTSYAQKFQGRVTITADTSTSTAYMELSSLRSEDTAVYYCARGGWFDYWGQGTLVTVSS VL: QSALTQPRSVSGSPGQSVTISCTGTSSDVGSFNYVNWYQQHPGKAPKLMIRGVSKRESGVPDRFSGSKSGNTASLTISGLQAEDEADYYCGTFAGGAYYGVFGGGTKLTVL	0.89
Antibody Nonnafürzla (antibody, V domains shown) VH: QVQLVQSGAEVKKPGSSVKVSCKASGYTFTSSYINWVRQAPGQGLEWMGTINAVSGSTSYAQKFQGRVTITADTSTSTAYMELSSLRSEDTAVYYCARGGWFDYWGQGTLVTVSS VL: QSALTQPRSVSGSPGQSVTISCTGTSSDVGSYNYVNWYQQHPGKAPKLMIYGVSKRDSGVPDRFSGSKSGNTASLTISGLQAEDEADYYCGTFAGGKYYGVFGGGTKLTVL	1.44
Antibody Oierspätzla (antibody, V domains shown) VH: QVQLVQSGAEVKKPGSSVKVSCKASGYTFTSSYINWVRQAPGQGLEWMGTINPVSGSTSYAQKFQGRVTITADTSTSTAYMELSSLRSEDTAVYYCARGGWFDYWGQGTLVTVSS VL: QSALTQPRSVSGSPGQSVTISCTGTSSDVGSYNYVNWYQQHPGKAPKLMIYGVSKRESGVPDRFSGSKSGNTASLTISGLQAEDEADYYCGTFAGGAYYGVFGGGTKLTVL	1.23
Antibody Rauchfloisch (antibody, V domains shown) VH: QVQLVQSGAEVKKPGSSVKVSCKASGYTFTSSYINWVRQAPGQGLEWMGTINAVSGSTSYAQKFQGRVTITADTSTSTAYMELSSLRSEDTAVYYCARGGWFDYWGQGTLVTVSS VL: QSALTQPRSVSGSPGQSVTISCTGTSSDVGSRNYVNWYQQHPGKAPKLMIYGVSKRESGVPDRFSGSKSGNTASLTISGLQAEDEADYYCGTFAGGDYYGVFGGGTKLTVL	1.26
